This section presents compounds with their documented inhibition at 10 µM values.
Target: Δ^5-lipoxygenase (Rattus norvegicus)
Construct: supernatant fraction of lysed rat basophilic leukemia (RBL-1) cells; endogenous in cells; host or cells: RBL-1 cells, 49,000 g supernatant of homogenate
Sequence (P12527 whole entry, stated change not applied): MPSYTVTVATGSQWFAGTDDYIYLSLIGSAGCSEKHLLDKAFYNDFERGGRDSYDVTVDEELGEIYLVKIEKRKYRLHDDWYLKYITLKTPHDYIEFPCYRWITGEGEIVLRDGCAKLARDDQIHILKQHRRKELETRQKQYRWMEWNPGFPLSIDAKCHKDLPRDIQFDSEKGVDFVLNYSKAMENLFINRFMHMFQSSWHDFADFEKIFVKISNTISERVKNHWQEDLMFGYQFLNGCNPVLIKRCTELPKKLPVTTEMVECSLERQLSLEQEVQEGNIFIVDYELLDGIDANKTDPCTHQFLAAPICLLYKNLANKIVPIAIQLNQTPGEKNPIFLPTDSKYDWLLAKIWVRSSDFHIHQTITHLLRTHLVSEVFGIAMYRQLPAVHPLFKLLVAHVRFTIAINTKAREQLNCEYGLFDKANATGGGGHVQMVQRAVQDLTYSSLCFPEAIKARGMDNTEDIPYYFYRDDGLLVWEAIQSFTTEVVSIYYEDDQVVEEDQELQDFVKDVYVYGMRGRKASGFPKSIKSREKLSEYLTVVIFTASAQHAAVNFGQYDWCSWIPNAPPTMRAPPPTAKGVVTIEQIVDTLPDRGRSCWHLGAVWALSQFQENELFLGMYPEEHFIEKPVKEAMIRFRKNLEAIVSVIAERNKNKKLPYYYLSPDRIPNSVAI
Test: ability to inhibit Δ^5-lipoxygenase
Format: biochemical
Details: 10 uM; RBL-1 cell supernatant
Counter-ions that a name gives are not always drawn.
Provide the reading as a plain figure in %.

Cl.N=C(N)c1cc(O)c(O)c(O)c1 [3,4,5-trihydroxybenzamidine.HCl, 3,4,5-trihydroxybenzamidine-HCl]; 75
NC(=NO)c1ccc(O)c(O)c1 [3,4-dihydroxybenzamidoxime.HCl, 3,4-dihydroxybenzamidoximehydrochloride]; 94
CCOC(=N)c1cc(O)c(O)c(O)c1 [ethyl 3,4,5-trihydroxybenzamidate-HCl]; 86

In the following, a different compound is considered.
Result for Cl.NC(=NO)c1cc(O)c(O)c(O)c1 [3,4,5-trihydroxybenzamidoxime.HCl] , tested on Δ^5-lipoxygenase (Rattus norvegicus), inhibition at 10 µM: 90

---

Target: ribonucleotide reductase
Assay: ribonucleotide reductase inhibition (conversion of CDP to dCDP), Table 1
Conditions: enzyme partially purified from HeLa cells or Ehrlich ascites cells; 40 min, 30° C; read-out: ID50 (inhibitory dose which inhibits ribonucleotide reductase by 50%)
Each record's IC50 is compared with low end (below 10 µM), middle (10 µM to below 20 µM), high end (20 µM or more) to give its class.

Here's what some known entries look like.
CCOC(=N)c1ccc(O)c(O)c1 [drawing 9]; middle
NC(=NO)c1cc(O)c(O)c(O)c1 [drawing 12]; low end
NC(=NO)c1ccc(O)c(O)c1O [drawing 17]; low end

Ask | Bin? NC(=NO)c1cccc(O)c1O
Reply | middle

Ask | Bin? CCOC(=N)c1cc(O)c(O)c(O)c1 [drawing 13]
Reply | middle

Ask | Bin? N=C(N)c1cc(O)c(O)c(O)c1 [drawing 14]
Reply | high end

Ask | Bin? ON=C(NO)c1ccc(O)c(O)c1 [drawing 11]
Reply | high end

Ask | Bin? ON=C(NO)c1cc(O)c(O)c(O)c1 [drawing 16]
Reply | high end

Ask | Bin? NC(=NO)c1ccc(O)c(O)c1 [drawing 8]
Reply | low end
